Values compiled from ChEMBL document CHEMBL3286274.

- EXPERIMENT_SUMMARY: Cytotoxicity against human MT4 cells infected with HIV-1 3B assessed as reduction in cell viability by MTT assay
- Assay type: cell-based
VALUE_TYPE: CC50

Some solved entries appear below for comparison.
{"columns": ["MOLECULE", "VALUE_TYPE", "EXPERIMENTAL_VALUE"],
 "data": [
  ["O=C(Nc1ccccc1)c1c(O)n(O)c(=O)c2cc([N+](=O)[O-])ccc12", "CC50", "115 µM"],
  ["COc1ccc2c(c1)C(=O)N(O)C(=O)C2C(=O)NCc1ccc(F)cc1 (stereo not drawn)", "CC50", "21 µM"],
  ["Nc1ccc2c(c1)C(=O)N(O)C(=O)C2C(=O)NCc1ccc(F)cc1 (stereo not drawn)", "CC50", "253 µM"]
]}

Fill in: CC50 of O=C(NCCc1ccc(F)cc1)c1c(O)n(O)c(=O)c2cc([N+](=O)[O-])ccc12 is ___
> 250 µM

Then O=C(NCc1ccc(F)cc1)C1C(=O)N(O)C(=O)c2cc(F)ccc21 (stereo not drawn) ?
116 µM
